Listing: pIC50 of selected compounds
target_desc: PD-1/PD-L1 (Homo sapiens, UniProt Q9NZQ7)
Construct: Recombinant human PD-L1 protein (19-238) with a Histag at the C-terminus; PD1-H5257 (PD-1)
Sequence (Q9NZQ7 19-238): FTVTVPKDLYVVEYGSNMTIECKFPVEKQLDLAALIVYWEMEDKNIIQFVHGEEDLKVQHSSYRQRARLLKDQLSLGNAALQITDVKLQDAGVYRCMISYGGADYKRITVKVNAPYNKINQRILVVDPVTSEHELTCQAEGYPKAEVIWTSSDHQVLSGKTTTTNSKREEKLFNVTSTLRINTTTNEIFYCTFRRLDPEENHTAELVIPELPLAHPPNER
test_method_notes: PD-1/PD-L1 Homogeneous Time-Resolved Fluorescence (HTRF) Binding Assay
condition_info: PD-1/PD-L1 HTRF activity; 3 nM PD1, 10 nM PD-L1, 25° C.
pIC50: −log10 of the molar value.

Please review the entries below; each comes with its answer.
{"columns": ["compound", "target_desc", "pIC50"],
 "data": [
  ["CN1CCN(CCn2cnn3cc(-c4cccc(-c5cccc(-c6cc7c(=O)n(CCN8CCN(C)CC8)cnn7c6)c5Cl)c4Cl)cc3c2=O)CC1", "PD-1/PD-L1 (Homo sapiens, UniProt Q9NZQ7)", "≤ 7.00"],
  ["Cc1cn2nc(-c3cccc(-c4cccc(-c5cc6c(=O)n(CCN[C@@](C)(CO)C(=O)O)c(C)cn6n5)c4Cl)c3Cl)cc2c(=O)n1CCN[C@@](C)(CO)C(=O)O", "PD-1/PD-L1 (Homo sapiens, UniProt Q9NZQ7)", "7.00 to 8.00"],
  ["Cn1c(CNCCO)cn2nc(-c3cccc(-c4cccc(-c5cc6c(=O)n(C)c(CNCCO)cn6n5)c4Cl)c3Cl)cc2c1=O", "PD-1/PD-L1 (Homo sapiens, UniProt Q9NZQ7)", "> 8.00"],
  ["Cc1cn2nc(-c3cccc(-c4cccc(-c5cc6c(=O)n(CCN[C@@H](CO)C(=O)O)c(C)cn6n5)c4Cl)c3Cl)cc2c(=O)n1CCN[C@@H](CO)C(=O)O", "PD-1/PD-L1 (Homo sapiens, UniProt Q9NZQ7)", "> 8.00"],
  ["Cc1cn2nc(-c3cccc(-c4cccc(-c5cc6c(=O)n(CCN[C@](C)(CO)C(=O)O)c(C)cn6n5)c4Cl)c3Cl)cc2c(=O)n1CCN[C@](C)(CO)C(=O)O", "PD-1/PD-L1 (Homo sapiens, UniProt Q9NZQ7)", "7.00 to 8.00"]
]}

Data request, read-out pIC50, for O=C(O)CCC(O)Cn1cnn2cc(-c3cccc(-c4cccc(-c5cc6c(=O)n(CC(O)CCC(=O)O)cnn6c5)c4Cl)c3Cl)cc2c1=O (stereo not drawn)
≤ 7.00

###

target_desc: extracellular domains of PD-L1 (Homo sapiens)
Construct: specifically dimerize the extracellular domains of PD-L1
Sequence (Q9NZQ7 19-238 limits assumed): as the sequence (Q9NZQ7 19-238) above
test_method_notes: PD-L1 Dimerization
Format: biochemical
condition_info: PD-L1-Eu and PD-L1-A2, ratio 665 nm/615 nm
measured_attribute: EC50

Please review the entries below; each comes with its answer.
{"columns": ["compound", "EC50"],
 "data": [
  ["Cn1c(CN[C@@H](CO)C(=O)O)cn2nc(-c3cccc(-c4cccc(-c5cc6c(=O)n(C)c(CN[C@@H](CO)C(=O)O)cn6n5)c4Cl)c3Cl)cc2c1=O [Compound 80]", "≥ 100 nM"],
  ["Cc1cn2nc(-c3cccc(-c4cccc(-c5cc6c(=O)n(CCN[C@H]7C[C@@H](O)C7)c(C)cn6n5)c4Cl)c3Cl)cc2c(=O)n1CCN[C@H]1C[C@@H](O)C1 [Compound 91]", "< 50 nM"]
]}

Hello, I am looking for reported EC50 with extracellular domains of PD-L1 (Homo sapiens) for Cc1cn2nc(-c3cccc(-c4cccc(-c5cc6c(=O)n(CCNC7(C(=O)O)CC(O)C7)c(C)cn6n5)c4Cl)c3Cl)cc2c(=O)n1CCNC1(C(=O)O)CC(O)C1 (stereo not drawn) [Compound 85] . Could you help?
50 to 100 nM
